Origin of the recorded values: patent US20240003908A1

# MEASUREMENT DESCRIPTION: Epalrestat plasma pharmacokinetics (LC-MS/MS) in patient P1
# Assay type: in vivo, human
# APPLIED CONDITIONS: human, plasma, oral; patient P1, after a 5 mg dose; read-out: systemic exposure (AUC)

SMILES STRING: CC(/C=C1\SC(=S)N(CC(=O)O)C1=O)=C\c1ccccc1
AUC [ng·h/mL]: 2790

====

# MEASUREMENT DESCRIPTION: Epalrestat plasma pharmacokinetics (LC-MS/MS) in patient P1
# Format: in vivo, human
# APPLIED CONDITIONS: human, plasma, po, 5 mg, patient P1, oral dose, plasma; read-out: t½ (converted)

SMILES STRING: CC(/C=C1\SC(=S)N(CC(=O)O)C1=O)=C\c1ccccc1
half-life: ~1.04 h
